# System: Acinetobacter baumannii ATCC 19606
# Assay type: cell-based
# assayConditions: ATCC 19606
Where a SMILES comes first, the peptide text is derived from it. [ ]: non-standard residue; d: D form. The star is where a group is joined. Heptanoyl = CCCCCCC(=O)*; Octanoyl = CCCCCCCC(=O)*; Dab = NCC[C@H](N)C(=O)O
Quick reference for MIC among some compounds

[
  {
    "compound": "CCCCCCC(=O)N[C@@H](CCN)C(=O)N[C@H](C(=O)N[C@@H](CCN)C(=O)N[C@H](Cc1ccccc1)C(=O)N[C@@H](CC(C)C)C(=O)N[C@@H](CCN)C(=O)N[C@@H](C(=O)N[C@@H](CC(C)C)C(=O)N[C@@H](CO)C(N)=O)C(C)C)[C@@H](C)CC [Analogue 3] (Heptanoyl-[Dab]I[Dab][dF]L[Dab][dV]LS-NH2)",
    "MIC": ">32 µg/mL"
  },
  {
    "compound": "CCCCCCC(=O)N[C@@H](CCN)C(=O)N[C@H](C(=O)N[C@@H](CCN)C(=O)N[C@H](Cc1ccccc1)C(=O)N[C@@H](CC(C)C)C(=O)N[C@@H](CCN)C(=O)N[C@@H](C(=O)N[C@@H](CC(C)C)C(=O)N[C@@H](CO)C(N)=O)C(C)C)C(C)C [Analogue 2] (Heptanoyl-[Dab]V[Dab][dF]L[Dab][dV]LS-NH2)",
    "MIC": ">32 µg/mL"
  },
  {
    "compound": "CCCCCCCC(=O)N[C@@H](CCN)C(=O)N[C@H](C(=O)N[C@@H](CCN)C(=O)N[C@H](Cc1ccccc1)C(=O)N[C@@H](CC(C)C)C(=O)N[C@@H](CCN)C(=O)N[C@@H](C(=O)N[C@@H](CC(C)C)C(=O)N[C@@H](CCN)C(N)=O)C(C)C)[C@@H](C)CC [Analogue 9] (Octanoyl-[Dab]I[Dab][dF]L[Dab][dV]L[Dab]-NH2)",
    "MIC": "≥32 µg/mL"
  }
]

###

# Test system: rabbit red blood cells
# assayNotes: Hemolytic activity
# Type: cell-based
# assayConditions: 64 μg/mL; relative to Triton X-100
Where a SMILES comes first, the peptide text is derived from it. [ ]: non-standard residue; d: D form. The star is where a group is joined. ξ: configuration not given here. Cha = N[C@@H](CC1CCCCC1)C(=O)O; Heptanoyl = CCCCCCC(=O)*; Octanoyl = CCCCCCCC(=O)*; Dab = NCC[C@H](N)C(=O)O; ξDab = NCCC(N)C(=O)O
List of Hemolysis values.

[
  {
    "molecule": "CCCCCCCC(=O)N[C@@H](CCN)C(=O)NC(CCN)C(=O)N[C@@H](CCN)C(=O)N[C@H](Cc1ccccc1)C(=O)N[C@@H](CC(C)C)C(=O)N[C@@H](CCN)C(=O)N[C@@H](C(=O)N[C@@H](CC(C)C)C(=O)N[C@@H](CCN)C(N)=O)C(C)C (stereo partly drawn) [Analogue 10] (Octanoyl-[Dab][ξDab][Dab][dF]L[Dab][dV]L[Dab]-NH2)",
    "Hemolysis [%]": 0.41
  },
  {
    "molecule": "CCCCCCC(=O)N[C@@H](CCN)C(=O)N[C@@H](Cc1ccccc1)C(=O)N[C@@H](CCN)C(=O)N[C@H](Cc1ccccc1)C(=O)N[C@@H](CC(C)C)C(=O)N[C@@H](CCN)C(=O)N[C@H](CC(C)C)C(=O)N[C@@H](Cc1ccccc1)C(=O)N[C@@H](CO)C(N)=O [Analogue 7] (Heptanoyl-[Dab]F[Dab][dF]L[Dab][dL]FS-NH2)",
    "Hemolysis [%]": 18.8
  },
  {
    "molecule": "CC[C@H](C)[C@H](NC(=O)[C@H](CCN)NC(=O)[C@@H](N)CC1CCCCC1)C(=O)N[C@@H](CCN)C(=O)N[C@H](Cc1ccccc1)C(=O)N[C@@H](CC(C)C)C(=O)N[C@@H](CCN)C(=O)N[C@@H](C(=O)N[C@@H](CC(C)C)C(=O)N[C@@H](CO)C(N)=O)C(C)C [Analogue 16] (H-[Cha][Dab]I[Dab][dF]L[Dab][dV]LS-NH2)",
    "Hemolysis [%]": 0.65
  }
]

###

Reported Hemolysis values for the following molecules.
# Test system: rabbit red blood cells
# assayNotes: Hemolytic activity
# Format: cell-based
# assayConditions: 16 μg/mL; relative to Triton X-100
Where a SMILES comes first, the peptide text is derived from it. [ ]: non-standard residue; d: D form. The star is where a group is joined. Dab = NCC[C@H](N)C(=O)O; Cbz = O=C(OCc1ccccc1)*; Hexanoyl = CCCCCC(=O)*

[
  {
    "molecule": "CCCCCC(=O)N[C@@H](CCN)C(=O)N[C@H](C(=O)N[C@@H](CCN)C(=O)N[C@H](Cc1ccccc1)C(=O)N[C@@H](CC(C)C)C(=O)N[C@@H](CCN)C(=O)N[C@@H](C(=O)N[C@@H](CC(C)C)C(=O)N[C@@H](CO)C(N)=O)C(C)C)[C@@H](C)CC [Analogue 1] (Hexanoyl-[Dab]I[Dab][dF]L[Dab][dV]LS-NH2)",
    "Hemolysis (%)": 0.48
  },
  {
    "molecule": "CC[C@H](C)[C@H](NC(=O)[C@H](CCN)NC(=O)OCc1ccccc1)C(=O)N[C@@H](CCN)C(=O)N[C@H](Cc1ccccc1)C(=O)N[C@@H](CC(C)C)C(=O)N[C@@H](CCN)C(=O)N[C@@H](C(=O)N[C@@H](CC(C)C)C(=O)N[C@@H](CO)C(N)=O)C(C)C [Analogue 15] (Cbz-[Dab]I[Dab][dF]L[Dab][dV]LS-NH2)",
    "Hemolysis (%)": 0.77
  }
]

###

# System: Escherichia coli ATCC 25922
# Type: cell-based
# assayConditions: ATCC 25922
Where a SMILES comes first, the peptide text is derived from it. [ ]: non-standard residue; d: D form. The star is where a group is joined. ξ: configuration not given here. Heptanoyl = CCCCCCC(=O)*; Octanoyl = CCCCCCCC(=O)*; Dab = NCC[C@H](N)C(=O)O; ξDab = NCCC(N)C(=O)O
parameter: MIC

[
  {
    "compound": "CCCCCCC(=O)N[C@@H](CCN)C(=O)N[C@@H](Cc1ccccc1)C(=O)N[C@@H](CCN)C(=O)N[C@H](Cc1ccccc1)C(=O)N[C@@H](CC(C)C)C(=O)N[C@@H](CCN)C(=O)N[C@@H](C(=O)N[C@@H](CC(C)C)C(=O)N[C@@H](CO)C(N)=O)C(C)C [Analogue 4] (Heptanoyl-[Dab]F[Dab][dF]L[Dab][dV]LS-NH2)",
    "valueObserved": "1 to 4 µg/mL"
  },
  {
    "compound": "CCCCCCC(=O)N[C@@H](CCN)C(=O)N[C@@H](Cc1ccccc1)C(=O)N[C@@H](CCN)C(=O)N[C@H](Cc1ccccc1)C(=O)N[C@@H](CC(C)C)C(=O)N[C@@H](CCN)C(=O)N[C@H](CC(C)C)C(=O)N[C@@H](CC(C)C)C(=O)N[C@@H](CO)C(N)=O [Analogue 6] (Heptanoyl-[Dab]F[Dab][dF]L[Dab][dL]LS-NH2)",
    "valueObserved": "1 to 4 µg/mL"
  },
  {
    "compound": "CCCCCCCC(=O)N[C@@H](CCN)C(=O)N[C@H](C(=O)N[C@@H](CCN)C(=O)N[C@H](Cc1ccccc1)C(=O)N[C@@H](CC(C)C)C(=O)N[C@@H](CCN)C(=O)N[C@@H](C(=O)N[C@@H](CC(C)C)C(=O)N[C@@H](CO)C(N)=O)C(C)C)[C@@H](C)CC [Analogue 8, C8-Pat] (Octanoyl-[Dab]I[Dab][dF]L[Dab][dV]LS-NH2)",
    "valueObserved": "2 to 4 µg/mL"
  },
  {
    "compound": "CCCCCCCC(=O)N[C@@H](CCN)C(=O)NC(CCN)C(=O)N[C@@H](CCN)C(=O)N[C@H](Cc1ccccc1)C(=O)N[C@@H](CC(C)C)C(=O)N[C@@H](CCN)C(=O)N[C@@H](C(=O)N[C@@H](CC(C)C)C(=O)N[C@@H](CCN)C(N)=O)C(C)C (stereo partly drawn) [Analogue 10] (Octanoyl-[Dab][ξDab][Dab][dF]L[Dab][dV]L[Dab]-NH2)",
    "valueObserved": ">32 µg/mL"
  },
  {
    "compound": "CCCCCCC(=O)N[C@@H](CCN)C(=O)N[C@@H](Cc1ccccc1)C(=O)N[C@@H](CCN)C(=O)N[C@H](Cc1ccccc1)C(=O)N[C@@H](CC(C)C)C(=O)N[C@@H](CCN)C(=O)N[C@H](CC(C)C)C(=O)N[C@@H](Cc1ccccc1)C(=O)N[C@@H](CO)C(N)=O [Analogue 7] (Heptanoyl-[Dab]F[Dab][dF]L[Dab][dL]FS-NH2)",
    "valueObserved": "0.5 to 2 µg/mL"
  },
  {
    "compound": "CCCCCCC(=O)N[C@@H](CCN)C(=O)N[C@H](C(=O)N[C@@H](CCN)C(=O)N[C@H](Cc1ccccc1)C(=O)N[C@@H](CC(C)C)C(=O)N[C@@H](CCN)C(=O)N[C@H](CC(C)C)C(=O)N[C@@H](CC(C)C)C(=O)N[C@@H](CO)C(N)=O)[C@@H](C)CC [Analogue 5] (Heptanoyl-[Dab]I[Dab][dF]L[Dab][dL]LS-NH2)",
    "valueObserved": "1 to 4 µg/mL"
  }
]
